tested on: SNB-19; assay: NCI tumour cell line growth inhibition, 48 h
Active and inactive are the calls of the source. No stated cut-off is given here; in the data, active = GI50 up to about 1.1 µM and inactive = higher.
Listed below: GI50 values for each entry.
measured-quantity: GI50

[[record]]
compound = "CCOC(=O)CO/N=C1/C(=C2/C(=O)Nc3ccccc32)Nc2ccccc21"
system_tested = "SNB-19"
val = "10 µM (inactive)"

[[record]]
compound = "NCCCNCCCCN1CCOC1=O"
system_tested = "SNB-19"
val = "> 100 µM (inactive)"

[[record]]
compound = "NC(=O)NO [HYDROXYUREA]"
system_tested = "SNB-19"
val = "1580 µM (inactive)"

[[record]]
compound = "C(=N/NC1=NCCN1)/c1c2ccccc2c(/C=N\\NC2=NCCN2)c2ccccc12"
system_tested = "SNB-19"
val = "0.0746 µM (active)"

[[record]]
compound = "COC(=O)C1OC(SCCN)C(O)C(O)C1O (stereo not drawn)"
system_tested = "SNB-19"
val = "> 100 µM (inactive)"

[[record]]
compound = "CC(C#N)(c1ccccc1)N(CCc1ccccc1)C(=O)Oc1ccccc1 (stereo not drawn)"
system_tested = "SNB-19"
val = "44.2 µM (inactive)"

[[record]]
compound = "[O-]/[N+](=C\\c1ccccc1OC(=S)S)c1ccc(Cl)cc1"
system_tested = "SNB-19"
val = "83.4 µM (inactive)"

[[record]]
compound = "CC1(C)OCN(c2ccc(S(N)(=O)=O)cc2)Cn2c1nc1ccccc12"
system_tested = "SNB-19"
val = "> 100 µM (inactive)"

[[record]]
compound = "COc1ccc2c(C)cc(N/N=C/c3ccc(OC)c4ccccc34)nc2c1"
system_tested = "SNB-19"
val = "18.8 µM (inactive)"

[[record]]
compound = "Clc1ccc2ns[s+]c2c1"
system_tested = "SNB-19"
val = "29.2 µM (inactive)"

[[record]]
compound = "COC1O[C@H]2[C@H]3[C@@H]1[C@@H](OS(=O)(=O)c1ccc(C)cc1)C(=O)N3C[C@H]2O (stereo partly drawn)"
system_tested = "SNB-19"
val = "> 100 µM (inactive)"

[[record]]
compound = "CCCCN(CCCC)C(=O)C(=O)C(C(=O)c1ccc(OC)cc1)c1ccc(OC)cc1 (stereo not drawn)"
system_tested = "SNB-19"
val = "> 100 µM (inactive)"

[[record]]
compound = "C[C@]12CCc3nonc3C1CC[C@@H]1C2CC[C@]2(C)C(=O)CCC12 (stereo partly drawn)"
system_tested = "SNB-19"
val = "81.1 µM (inactive)"

[[record]]
compound = "O=C(O)CSCc1cccc2ccccc12"
system_tested = "SNB-19"
val = "> 100 µM (inactive)"

[[record]]
compound = "COc1ccc(/C=N/NC(=O)c2sc(=S)n(-c3ccccc3)c2N)cc1"
system_tested = "SNB-19"
val = "28.1 µM (inactive)"

[[record]]
compound = "Cc1cccc(Nc2nc3ccccc3nc2NS(=O)(=O)c2ccc(N)cc2)c1"
system_tested = "SNB-19"
val = "31.3 µM (inactive)"

[[record]]
compound = "Cc1cc(O)c2c(c1)C(=O)C=C(Br)C2=O"
system_tested = "SNB-19"
val = "> 65.8 µM (inactive)"

[[record]]
compound = "C=CCN1C(=O)NC(=O)/C(=C/c2c3ccccc3cc3ccccc23)C1=O"
system_tested = "SNB-19"
val = "21.8 µM (inactive)"

[[record]]
compound = "CCOC(=O)/C=C/CCO[Si](C)(C)C(C)(C)C"
system_tested = "SNB-19"
val = "> 100 µM (inactive)"

[[record]]
compound = "Cc1nn(C(=O)Cc2ccccc2)c2c1C(c1ccccc1O)SC(=N)N2 (stereo not drawn)"
system_tested = "SNB-19"
val = "> 100 µM (inactive)"

[[record]]
compound = "Cc1cn(C2CC(O)C(Cn3nncc3Cn3cnc4c(N)ncnc43)O2)c(=O)[nH]c1=O (stereo not drawn)"
system_tested = "SNB-19"
val = "> 100 µM (inactive)"

[[record]]
compound = "COc1ccc(Cc2cc(Cc3ccc(OC)cc3)cc(Cc3ccc(OC)cc3)c2)cc1"
system_tested = "SNB-19"
val = "> 100 µM (inactive)"

[[record]]
compound = "O=C1CC2[C@@H](N3CCCC3)CCC(N1Cc1ccccc1)C2(O)O (stereo partly drawn)"
system_tested = "SNB-19"
val = "> 100 µM (inactive)"

